assay: NO radical scavenging assay; conditions: pure compound
measure: IC50 (µM)
Give just the number in µM; leave the unit off.

Recorded IC50 (compound C[C@@H]1O[C@@H](OC[C@H]2O[C@@H](Oc3c(-c4ccc(O)cc4)oc4cc(O)cc(O)c4c3=O)[C@H](O)[C@@H](O)[C@@H]2O)[C@H](O)[C@H](O)[C@H]1O [Compound 4, nicotiflorin] ): 41.3

* * *

The compounds listed here are annotated with their pIC50.
system: NF-κB; test: NF-κB inhibition assay, TNF-α stimulated HEK293/NF-κB-luc luciferase reporter cells; format: cell-based; settings: Homo sapiens, HEK293, 5 h, TNF-α (20 ng/mL) induced, mean ± SD of three independent measurements
Note on units: pIC50 is unitless, being -log10 of a concentration expressed in mol/L.

compound	pIC50
CC1=C(C)C(=O)O[C@@H]([C@](C)(O)[C@]2(O)CC[C@@]3(O)[C@@H]4CC=C5CC=CC(=O)[C@]5(C)[C@H]4CC[C@]23C)C1 [Compound 1, withanolide F]	5.92

Recorded pIC50 (compound C=C1C(=O)O[C@H]2[C@H]1CC/C(C)=C/CC[C@@]1(C)O[C@@H]21 [Parthenolide, parthenolide, reference compound] ): 6.28

Recorded pIC50 (compound CC1=C(CO)C(=O)O[C@@H]([C@@H](C)[C@H]2CC[C@H]3[C@@H]4C[C@H]5O[C@]56[C@@H](O)C=CC(=O)[C@]6(C)[C@H]4CC[C@]23C)C1 ): 7.33

Data origin, for the record: paper PMC6249549
